Molecular target: Gal(a1-3)Gal(b1-3)GlcNAc(b1-3)GalNAc
Assay: glycan array binding signal (z-score within array); higher = stronger binding
Settings: glycan notation: IUPAC condensed, linker removed
About 410 targets per protein were measured; listed, in parts, are those with the strongest signals and a random draw of the rest.
measurementLabel: glycan array binding signal (z-score)
Answers are plain numbers.

>  <binder>
Mnn9-2N3 (Aspergillus fumigatus) (protein) MAVARRMRRTNPITLLLAAILAIGFFIFVLSPSTTSASPVKAGSASSSSTSQQRREDNAAENPLSPPTKPFFKSQPVRHDGQQAPPPVVQYNLNQLSSTSTSAANGERILILTPMARFVPEYWDNVVKLTYPHELISIGFIIPKNKEGNAALAALEAAIAKTQSGPIDKRFASISILRQDFEPPLQSQDEKERHKISNQKARRESMSRARNSLLFTTLGPATAWVLWLDADIVETPPTLIQDLTAHDHPVLVPNCYQRYYNSEKKKMDVRPYDYNSWIDSSTAQSMAAEMGPDEILLEGYAEMPTYRTLMAHLADTANPNPKKVIELDGVGGTALMVKAEVHRDGAMFPAFPFYHLVETEGFAKMAKRLGYSVYGLPDYFVSRNFFFFFFFFFFG

>  <measurementLabel>
glycan array binding signal (z-score)

>  <reported>
-0.015

$$$$
>  <binder>
Pwp4 (Candida glabrata) (protein) MGSSHHHHHHSSGLVPRGSHMASVGNPITVSNVCSFPKNWHRTAGFRALTARLGIGIQSDSYKELLNYPGTFQLTTQQSSTTKPNFQISGLVGNIYGLTIVPSYLLVELTGYFVPPVSGEYTFSLEGSDDAAIIFIANPSTFKCGHVEDWPTAYDNDVTVTESIHATRTIYMIEGVAYPIRIAYYNGLSLGKLQASFTDPEGVKRVDWNGYIWRYDSCDTCSYV

>  <measurementLabel>
glycan array binding signal (z-score)

>  <reported>
-0.55

$$$$

Now take the following binder into account.
Dear colleague, I am looking for the recorded glycan array binding signal (z-score) of the following binder: CBM13 2a (Mycobacterium tuberculosum), P64849 (protein) DGPVQLKSRLGDVCLDAPSGSWFSPLVINPCNGTDFQRWNLTDDRQVESVAFPGECVNIGNALWARLQPCVNWISQHWTVQPDGLVKSDLDACLTVLGGPDPGTWVSTRWCDPNAPDQQWDSVPLEHHHHHH -0.132
